# test method notes: Pharmacokinetics in mini-pigs after i.v. administration
# condition notes: female, Göttingen, minipig, plasma, iv, 5 nmol/kg
# Procedure: The aim of the study is to assess the pharmacokinetic properties of the compounds of the invention, in mini-pigs. […] Samples were kept on wet ice until centrifugation (10 min, 4° C., 1942 g). […] The plasma samples were analysed by an immunoaasay described below. The plasma concentrations of the peptides with intact N-terminus were determined using a Luminescence Oxygen Chanelling Immuno-assay (LOCI). […]
Where no end group is shown, it is not given here.
Below, each entry is listed alongside its reported clearance.
property label: clearance (mL/h/kg)

{"columns": ["substance", "value reported"],
 "data": [
  ["HAEGTFTSDVSSYLEGQAAKEFIAWLVEKVKEHL-NH2 [Compound 107]", 8.04],
  ["HAEGTFTSDVSSYLEGEAVKEFIAWLVEKVKEFL-NH2 [Compound 67]", 1.17]
]}
